Test system: Klebsiella pneumoniae 8045
assay.overview: Heart Infusion Agar Dilution Method, minimum inhibitory concentration
Assay type: cell-based
experimental.conditions: pH 7.2

compound	result.units	operator.symbol	MIC
CO/N=C(\C(=O)N[C@@H]1C(=O)N2C(C(=O)O)=C(Cl)CC[C@H]12)c1csc(N)n1 (relative stereo)	µg/mL	≤	0.05
CO/N=C(\C(=O)N[C@@H]1C(=O)N2C(C(=O)O)=C(Cl)CC[C@H]12)c1ccco1 (relative stereo)	µg/mL	=	12.5
N[C@@H](C(=O)N[C@@H]1C(=O)N2C(C(=O)O)=C(Cl)CC[C@H]12)c1ccc(O)cc1	µg/mL	=	0.78
CCN1CCN(C(=O)N[C@@H](C(=O)N[C@@H]2C(=O)N3C(C(=O)O)=C(Cl)CC[C@H]23)c2ccccc2)C(=O)C1=O	µg/mL	=	0.1

====

# reported MIC; entries follow
System: Proteus morganii KY4298
assay.overview: Heart Infusion Agar Dilution Method, minimum inhibitory concentration
Type: cell-based
experimental.conditions: Morganella morganii; Proteus morganii KY4298; Heart Infusion Agar Dilution Method, pH 7.2; read-out: Minimum Inhibitory Concentration
Experimental: The activity is determined by the Heart Infusion Agar Dilution Method (pH 7.2).

compound	MIC
N[C@@H](C(=O)N[C@@H]1C(=O)N2C(C(=O)O)=C(Cl)CC[C@H]12)c1ccccc1 [a]	> 100 µg/mL
CO/N=C(\C(=O)N[C@@H]1C(=O)N2C(C(=O)O)=C(Cl)CC[C@H]12)c1csc(N)n1 (relative stereo) [d]	0.4 µg/mL
N[C@@H](C(=O)N[C@@H]1C(=O)N2C(C(=O)O)=C(Cl)CC[C@H]12)c1ccc(O)cc1 [e]	> 100 µg/mL
CCN1CCN(C(=O)N[C@@H](C(=O)N[C@@H]2C(=O)N3C(C(=O)O)=C(Cl)CC[C@H]23)c2ccccc2)C(=O)C1=O [b]	3.12 µg/mL
CO/N=C(\C(=O)N[C@@H]1C(=O)N2C(C(=O)O)=C(Cl)CC[C@H]12)c1ccco1 (relative stereo) [c]	> 100 µg/mL

====

Listing of recorded MIC by entry.
System: Staphylococcus epidermidis
assay.overview: Heart Infusion Agar Dilution Method, minimum inhibitory concentration
Format: cell-based
experimental.conditions: pH 7.2

compound	MIC [µg/mL]
N[C@@H](C(=O)N[C@@H]1C(=O)N2C(C(=O)O)=C(Cl)CC[C@H]12)c1ccc(O)cc1	1.56
CO/N=C(\C(=O)N[C@@H]1C(=O)N2C(C(=O)O)=C(Cl)CC[C@H]12)c1csc(N)n1 (relative stereo)	50
CO/N=C(\C(=O)N[C@@H]1C(=O)N2C(C(=O)O)=C(Cl)CC[C@H]12)c1ccco1 (relative stereo)	25
CCN1CCN(C(=O)N[C@@H](C(=O)N[C@@H]2C(=O)N3C(C(=O)O)=C(Cl)CC[C@H]23)c2ccccc2)C(=O)C1=O	1.56

====

Tested on: Proteus mirabilis 1287
assay.overview: Heart Infusion Agar Dilution Method, minimum inhibitory concentration
Assay type: cell-based
experimental.conditions: pH 7.2
In this section we review reported MIC values for a set of compounds.

compound	test.system	MIC, µg/mL
N[C@@H](C(=O)N[C@@H]1C(=O)N2C(C(=O)O)=C(Cl)CC[C@H]12)c1ccc(O)cc1	Proteus mirabilis 1287	3.12
CO/N=C(\C(=O)N[C@@H]1C(=O)N2C(C(=O)O)=C(Cl)CC[C@H]12)c1csc(N)n1 (relative stereo)	Proteus mirabilis 1287	0.1
CCN1CCN(C(=O)N[C@@H](C(=O)N[C@@H]2C(=O)N3C(C(=O)O)=C(Cl)CC[C@H]23)c2ccccc2)C(=O)C1=O	Proteus mirabilis 1287	1.56
CO/N=C(\C(=O)N[C@@H]1C(=O)N2C(C(=O)O)=C(Cl)CC[C@H]12)c1ccco1 (relative stereo)	Proteus mirabilis 1287	12.5
